test system: Actinomyces neuii subsp. anitratus; assay: Antimicrobial activity against Actinomyces neuii subsp. anitratus under anaerobic conditions after 44 hrs by CLSI-M11-47 protocol based agar dilution method; assay type: functional, Winkia neuii subsp. anitrata; conditions: Winkia neuii
Outcome measure: MIC50 (µg/mL)

1) CCC[C@@H]1C[C@@H](C(=O)N[C@@H]([C@H]2O[C@H](SC)[C@H](O)[C@@H](O)[C@H]2O)[C@H](C)Cl)N(C)C1	0.06
2) CO/N=C(\C(=O)N[C@@H]1C(=O)N2C(C(=O)O)=C(CSc3nc(=O)c(O)nn3C)CS[C@H]12)c1csc(N)n1	0.125
3) CCO/N=C(\C(=O)N[C@@H]1C(=O)N2C(C(=O)[O-])=C(Sc3nc(-c4cc[n+](C)cc4)cs3)CS[C@H]12)c1nsc(NP(=O)(O)O)n1	0.015

# credit: ChEMBL document CHEMBL1255409
